Where these numbers come from: patent US8937084B2

Target: UniProt:P35372
Assay: μ-opioid receptor [35S]GTPγS functional assay, U-2 OS cells
Format: biochemical
Settings: GTPγS
metric name: EC50
Give the number first and the unit second.

Examples with answers:
[in] Consider the molecule shown here: C[C@H](N)C(=O)N1CC[C@]23CCN(CC4CC4)[C@H](Cc4ccc(O)cc42)[C@@H]3C1 What is its recorded EC50?
[out] 9.82 nM

[in] Field request: EC50 | item: Oc1ccc(CN2CC[C@]34CCN(CC5CC5)[C@H](Cc5ccc(O)cc53)[C@@H]4C2)cc1
[out] 7.11 nM

[in] Would you mind telling me what EC50 value was observed for O=C1C[C@]23CCN(CC4CC4)[C@H](Cc4ccc(O)cc42)[C@@H]3CN1 ?
[out] 3.43 nM

[in] For NC(=O)CN1C[C@H]2[C@H]3Cc4ccc(O)cc4[C@@]2(CCN3CC2CC2)CC1=O , what is its reported EC50?
[out] 7.05 nM

[in] Suppose we examine the molecule O=C(O)CN1CC[C@]23CCN(CC4CC4)[C@H](Cc4ccc(O)cc42)[C@@H]3C1 ; what EC50 value has been reported?
[out] 20.8 nM

From here, focus on the item given below.
[in] Recorded EC50 for NC(=O)CN1CC[C@]23CCN(CC4CC4)[C@H](Cc4ccc(O)cc42)[C@@H]3C1 , please?
[out] 2.41 nM

====

Biological target: μ-opioid receptor (Homo sapiens (Human), UniProt P35372)
Experiment: μ-opioid receptor [35S]GTPγS functional assay, HEK-293 or CHO cells
Format: biochemical
Details: GTPγS
metric name: EC50 (nM)
Answers are plain numbers, in nM.

[in] Quick one: EC50 of NC(=O)CN1CC[C@]23CCN(CC4CC4)[C@H](Cc4ccc(O)cc42)[C@@H]3C1 ?
[out] 2.44

[in] Please give the measured EC50 for this molecule: O=C1C[C@]23CCN(CC4CC4)[C@H](Cc4ccc(O)cc42)[C@@H]3CN1Cc1ccc(O)cc1
[out] 45.9

[in] Dear colleague, I am looking for the recorded EC50 of the following molecule: Oc1ccc2c(c1)[C@@]13CCNC[C@H]1[C@@H](C2)N(CC1CC1)CC3
[out] 29.4

Below is a list of molecules. For each, state its recorded EC50.
1. O=C(O)CN1CC[C@]23CCN(CC4CC4)[C@H](Cc4ccc(O)cc42)[C@@H]3C1
2. O=C(O)CN1C[C@H]2[C@H]3Cc4ccc(O)cc4[C@@]2(CCN3CC2CC2)CC1=O
3. COc1ccc(CN2C=C3[C@H]4Cc5ccc(OC)cc5[C@@]3(CCN4CC3CC3)CC2=O)cc1

[out]
1. 28.6
2. 6.06
3. 268
